# System: Escherichia coli K-12 LA 290 R 56
# Method Notes: Minimal inhibitory concentration, agar dilution streak method
# Assay type: cell-based
# Assay Context: 18 h, read-out: Minimal inhibitory concentration
Measurement Type: MIC (µg/mL)
Numbers only, in µg/mL.

NC[C@@H]1CC[C@@H](N)[C@@H](O[C@H]2[C@H](O)[C@@H](O)[C@H](N)C[C@@H]2N)O1 6.25

Kindly review the next compound as well.
Ask: Find MIC (Escherichia coli K-12 LA 290 R 56) for the entry `NC[C@H]1O[C@H](O[C@H]2[C@H](O)[C@@H](O)[C@H](N)C[C@@H]2N)[C@H](N)[C@@H](O)[C@@H]1O`
Reply: 12.5
